Measured On: PI3K γ (p110γ) (Homo sapiens)
Construct: purchased Upstate / Millipore Corporation
Sequence (P48736 whole entry): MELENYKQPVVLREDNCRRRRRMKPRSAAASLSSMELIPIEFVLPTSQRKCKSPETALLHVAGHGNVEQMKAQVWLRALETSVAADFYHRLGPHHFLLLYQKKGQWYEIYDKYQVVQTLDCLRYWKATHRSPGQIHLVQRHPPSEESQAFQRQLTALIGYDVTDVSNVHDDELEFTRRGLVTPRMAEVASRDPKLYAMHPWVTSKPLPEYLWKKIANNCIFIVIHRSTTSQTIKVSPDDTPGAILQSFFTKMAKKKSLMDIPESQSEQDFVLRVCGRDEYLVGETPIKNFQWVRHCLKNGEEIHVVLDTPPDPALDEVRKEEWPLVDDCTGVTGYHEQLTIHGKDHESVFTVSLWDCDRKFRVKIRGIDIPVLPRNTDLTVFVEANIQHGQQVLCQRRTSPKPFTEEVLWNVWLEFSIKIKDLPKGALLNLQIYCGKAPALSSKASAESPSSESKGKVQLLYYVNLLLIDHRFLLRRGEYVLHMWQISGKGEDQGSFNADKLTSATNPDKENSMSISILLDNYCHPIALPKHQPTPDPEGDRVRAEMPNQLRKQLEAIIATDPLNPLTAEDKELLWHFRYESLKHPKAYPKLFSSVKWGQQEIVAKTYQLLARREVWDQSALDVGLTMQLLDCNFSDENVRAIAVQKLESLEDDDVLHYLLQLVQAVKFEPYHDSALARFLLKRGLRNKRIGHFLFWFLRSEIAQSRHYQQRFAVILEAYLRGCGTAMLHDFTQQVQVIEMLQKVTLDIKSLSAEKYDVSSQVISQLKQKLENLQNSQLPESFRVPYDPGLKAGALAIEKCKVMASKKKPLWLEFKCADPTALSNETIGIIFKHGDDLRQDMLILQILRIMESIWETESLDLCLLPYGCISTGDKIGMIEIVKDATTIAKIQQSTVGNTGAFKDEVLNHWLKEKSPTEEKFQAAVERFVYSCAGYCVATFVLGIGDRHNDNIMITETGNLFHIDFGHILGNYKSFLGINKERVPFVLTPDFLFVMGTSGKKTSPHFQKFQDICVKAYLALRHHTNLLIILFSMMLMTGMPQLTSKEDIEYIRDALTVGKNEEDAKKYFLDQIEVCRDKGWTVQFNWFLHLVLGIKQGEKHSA
Assay Text: PI 3-Kinase (human) HTRF assay, PI3K γ
Assay type: biochemical
Condition Set: read-out: PI3K γ IC50
Measurement Label: IC50

Sample records with IC50:
{"Compound": "Cn1cc(-c2ccnc3ccc(-c4ccc5oc(N)nc5c4)cc23)cn1 [Compound 26]", "IC50": "< 100 nM"}
{"Compound": "Nc1nc2ccc(-c3ccc4nc(N)oc4c3)cc2o1 [Compound 246]", "IC50": "> 10000 nM"}
{"Compound": "Nc1nc2cc(-c3ccc4ncc(N5CCNCC5)nc4c3)ccc2o1 [Compound 88]", "IC50": "< 1000 nM"}

Qu. Look up and report measured IC50 for this entry: Cc1cc(-c2ccc3ncc(C(=O)N4CCOCC4)n3c2)cc2nc(N)oc12 [Compound 364]
Ans. < 1000 nM

Qu. Look up and report measured IC50 for this entry: Cc1nc(NC(=O)N2CCC[C@H]2C(N)=O)sc1-c1ccc2oc(N)nc2c1 [Compound 311]
Ans. > 10000 nM

Qu. Look up and report measured IC50 for this entry: CC(=O)Nc1nc2ccc(-c3ccc4nccc(-c5ccncc5)c4c3)cc2s1 [Compound 2]
Ans. < 1000 nM

Qu. Look up and report measured IC50 for this entry: Cc1ccn(C2CN(c3cnc4ccc(-c5ccc6oc(N)nc6c5)cc4n3)C2)n1 [Compound 320]
Ans. < 10000 nM

Qu. Look up and report measured IC50 for this entry: CN1CC(n2cnc3ccc(-c4ccc5oc(N)nc5c4)cc3c2=O)C1 [Compound 528]
Ans. > 10000 nM

Qu. Look up and report measured IC50 for this entry: CC(=O)N1CCN(C(=O)c2cnc3ccc(-c4ccc5oc(N)nc5c4)cn23)CC1 [Compound 113]
Ans. < 1000 nM

* * *

Measured On: PI3K γ (p110γ) (Homo sapiens)
Construct: purchased Upstate / Millipore Corporation
Assay Text: PI 3-Kinase (human) HTRF assay, PI3K γ
Type: biochemical
Condition Set: read-out: PI3K γ IC50
pIC50: −log10 of the molar value.
Measurement Label: pIC50

{"Smiles Code": "Nc1nc2cc(-c3ccc4ncn(C5CCC5)c(=O)c4c3)ccc2o1", "Measured On": "PI3K γ (p110γ) (Homo sapiens)", "pIC50": "< 5.00"}
{"Smiles Code": "Nc1nc2cc(-c3ccc4ncc(N5CC(N6CCS(=O)(=O)CC6)C5)nc4c3)ccc2o1", "Measured On": "PI3K γ (p110γ) (Homo sapiens)", "pIC50": "> 5.00"}
{"Smiles Code": "C[C@@H]1CN(C(=O)c2cnc3ccc(-c4ccc5oc(N)nc5c4)cn23)C[C@H](C)O1", "Measured On": "PI3K γ (p110γ) (Homo sapiens)", "pIC50": "> 5.00"}
{"Smiles Code": "CS(=O)(=O)N1CCN(Cc2cc3nc(-c4ccc5oc(N)nc5c4)nc(N4CCOCC4)c3s2)CC1", "Measured On": "PI3K γ (p110γ) (Homo sapiens)", "pIC50": "> 7.00"}

Qu. Look up and report measured pIC50 for this entry: Nc1nc2cc(-c3ccc4ncc(N5CCN(CC(F)(F)F)CC5)nc4c3)ccc2o1
Ans. > 7.00

Qu. Look up and report measured pIC50 for this entry: Nc1nc2cc(-c3ccc4ncc(N5CC(N6CCOCC6)C5)nc4c3)c(F)cc2o1
Ans. > 5.00

Qu. Look up and report measured pIC50 for this entry: CN1CCN(c2ccc(-c3cnc4ccc(-c5ccc6oc(N)nc6c5)cn34)cn2)CC1
Ans. > 6.00

Qu. Look up and report measured pIC50 for this entry: C[C@H]1COCCN1C(=O)c1cnc2ccc(-c3ccc4oc(N)nc4c3)cn12
Ans. > 5.00

* * *

Measured On: PI3K β (p110β/p85α) (Homo sapiens, UniProt P42338)
Construct: purchased Upstate / Millipore Corporation
Sequence (P42338 whole entry): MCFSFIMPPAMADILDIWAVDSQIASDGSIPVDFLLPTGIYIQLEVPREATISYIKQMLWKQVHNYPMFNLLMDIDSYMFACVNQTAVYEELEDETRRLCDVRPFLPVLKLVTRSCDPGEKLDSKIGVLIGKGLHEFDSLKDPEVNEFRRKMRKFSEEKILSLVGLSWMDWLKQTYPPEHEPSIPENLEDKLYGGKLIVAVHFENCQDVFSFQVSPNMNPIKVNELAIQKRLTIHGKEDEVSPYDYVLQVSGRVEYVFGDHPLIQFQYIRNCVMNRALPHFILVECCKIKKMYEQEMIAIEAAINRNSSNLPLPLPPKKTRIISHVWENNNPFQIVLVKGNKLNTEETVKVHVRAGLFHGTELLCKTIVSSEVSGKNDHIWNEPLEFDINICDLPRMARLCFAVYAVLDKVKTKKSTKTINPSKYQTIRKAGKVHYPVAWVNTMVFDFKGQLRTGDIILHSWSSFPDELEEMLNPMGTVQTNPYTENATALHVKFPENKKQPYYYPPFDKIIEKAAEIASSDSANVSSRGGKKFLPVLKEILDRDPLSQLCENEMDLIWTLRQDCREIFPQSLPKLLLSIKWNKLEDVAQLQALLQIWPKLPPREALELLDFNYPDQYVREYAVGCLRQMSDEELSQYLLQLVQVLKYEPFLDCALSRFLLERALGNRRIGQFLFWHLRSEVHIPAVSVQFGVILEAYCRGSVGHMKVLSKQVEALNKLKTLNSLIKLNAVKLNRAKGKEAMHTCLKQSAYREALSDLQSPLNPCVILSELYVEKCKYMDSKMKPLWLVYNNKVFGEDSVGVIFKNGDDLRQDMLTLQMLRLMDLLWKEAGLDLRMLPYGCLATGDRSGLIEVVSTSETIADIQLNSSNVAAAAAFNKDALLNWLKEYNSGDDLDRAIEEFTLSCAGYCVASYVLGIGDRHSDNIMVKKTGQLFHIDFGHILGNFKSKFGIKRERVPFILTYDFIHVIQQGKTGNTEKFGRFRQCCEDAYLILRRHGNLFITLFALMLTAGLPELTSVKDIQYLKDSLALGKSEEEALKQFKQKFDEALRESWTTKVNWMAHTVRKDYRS
Sequence (P27986 whole entry partner): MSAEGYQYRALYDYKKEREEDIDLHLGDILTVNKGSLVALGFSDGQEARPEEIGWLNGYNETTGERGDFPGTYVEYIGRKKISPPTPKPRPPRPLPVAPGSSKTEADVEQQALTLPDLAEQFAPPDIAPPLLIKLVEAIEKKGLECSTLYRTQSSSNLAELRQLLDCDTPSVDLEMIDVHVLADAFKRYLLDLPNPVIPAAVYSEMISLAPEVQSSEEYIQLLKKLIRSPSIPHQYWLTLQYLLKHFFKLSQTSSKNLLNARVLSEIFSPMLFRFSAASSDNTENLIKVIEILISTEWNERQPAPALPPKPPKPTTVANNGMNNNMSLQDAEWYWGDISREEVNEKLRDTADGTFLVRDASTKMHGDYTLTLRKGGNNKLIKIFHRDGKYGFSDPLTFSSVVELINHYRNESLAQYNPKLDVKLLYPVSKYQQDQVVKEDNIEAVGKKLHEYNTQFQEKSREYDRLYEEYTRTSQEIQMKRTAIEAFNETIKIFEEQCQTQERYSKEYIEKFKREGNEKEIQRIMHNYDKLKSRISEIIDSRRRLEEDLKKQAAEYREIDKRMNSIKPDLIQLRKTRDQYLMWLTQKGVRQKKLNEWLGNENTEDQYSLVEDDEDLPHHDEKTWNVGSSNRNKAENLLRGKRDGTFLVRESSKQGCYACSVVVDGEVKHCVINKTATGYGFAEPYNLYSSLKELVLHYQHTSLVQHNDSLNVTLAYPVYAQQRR
Assay Text: PI 3-Kinase (human) HTRF assay, PI3K β
Assay type: biochemical
Condition Set: read-out: PI3K β IC50
Measurement Label: IC50

Qu. Look up and report measured IC50 for this entry: CN1CCC(N(C)c2ncnc3ccc(-c4ccc5oc(N)nc5c4)cc23)CC1 [Compound 155]
Ans. < 0.1 µM

Qu. Look up and report measured IC50 for this entry: Cc1ccn(C2CN(c3cnc4ccc(-c5ccc6oc(N)nc6c5)cc4n3)C2)n1 [Compound 320]
Ans. < 10 µM

Qu. Look up and report measured IC50 for this entry: CN(CCN1CCOCC1)c1cnc2ccc(-c3ccc4oc(N)nc4c3)cc2n1 [Compound 166]
Ans. < 10 µM

Qu. Look up and report measured IC50 for this entry: Nc1nc2cc(-c3ccc4ncc(C(=O)N5CCN(CCO)CC5)n4c3)ccc2o1 [Compound 148]
Ans. > 10 µM

Qu. Look up and report measured IC50 for this entry: CS(=O)(=O)CCN1CCC(Nc2cnc3ccc(-c4ccc5oc(N)nc5c4)cc3n2)CC1 [Compound 181]
Ans. < 10 µM

Qu. Look up and report measured IC50 for this entry: Cc1ncc(-c2ccc3ncc(C(=O)N4CCOCC4)n3c2)c2cn[nH]c12 [Compound 530]
Ans. > 10 µM

* * *

Consider the following molecules and their measured IC50 readings.
Measured On: PI3K β (p110β/p85α) (Homo sapiens, UniProt P42338)
Construct: purchased Upstate / Millipore Corporation
Assay Text: PI 3-Kinase (human) HTRF assay, PI3K β
Assay type: biochemical
Condition Set: read-out: PI3K β IC50

{"Smiles Code": "CN1CCN(S(=O)(=O)c2cnc3ccc(-c4ccc5oc(N)nc5c4)cn23)CC1", "Recorded Value": "> 10 µM"}
{"Smiles Code": "Nc1nc2cc(-c3ccc4ncc(N5CC(N6CCOCC6)C5)nc4c3)c(Cl)cc2o1", "Recorded Value": "< 10 µM"}
{"Smiles Code": "CC(C)N1CCN(C2CN(c3cnc4ccc(-c5ccc6oc(N)nc6c5)cc4n3)C2)CC1", "Recorded Value": "< 10 µM"}

Qu. Look up and report measured IC50 for this entry: Nc1nc2cc(-c3ccc4ncc(C(=O)NCCN5CCCC5)n4c3)ccc2o1
Ans. < 10 µM

* * *

Consider the following compounds and their measured IC50 readings.
Measured On: PI3K α (p110α/p85α) (Homo sapiens, UniProt P42336)
Construct: purchased Upstate / Millipore Corporation
Sequence (P42336 whole entry, one chain of several): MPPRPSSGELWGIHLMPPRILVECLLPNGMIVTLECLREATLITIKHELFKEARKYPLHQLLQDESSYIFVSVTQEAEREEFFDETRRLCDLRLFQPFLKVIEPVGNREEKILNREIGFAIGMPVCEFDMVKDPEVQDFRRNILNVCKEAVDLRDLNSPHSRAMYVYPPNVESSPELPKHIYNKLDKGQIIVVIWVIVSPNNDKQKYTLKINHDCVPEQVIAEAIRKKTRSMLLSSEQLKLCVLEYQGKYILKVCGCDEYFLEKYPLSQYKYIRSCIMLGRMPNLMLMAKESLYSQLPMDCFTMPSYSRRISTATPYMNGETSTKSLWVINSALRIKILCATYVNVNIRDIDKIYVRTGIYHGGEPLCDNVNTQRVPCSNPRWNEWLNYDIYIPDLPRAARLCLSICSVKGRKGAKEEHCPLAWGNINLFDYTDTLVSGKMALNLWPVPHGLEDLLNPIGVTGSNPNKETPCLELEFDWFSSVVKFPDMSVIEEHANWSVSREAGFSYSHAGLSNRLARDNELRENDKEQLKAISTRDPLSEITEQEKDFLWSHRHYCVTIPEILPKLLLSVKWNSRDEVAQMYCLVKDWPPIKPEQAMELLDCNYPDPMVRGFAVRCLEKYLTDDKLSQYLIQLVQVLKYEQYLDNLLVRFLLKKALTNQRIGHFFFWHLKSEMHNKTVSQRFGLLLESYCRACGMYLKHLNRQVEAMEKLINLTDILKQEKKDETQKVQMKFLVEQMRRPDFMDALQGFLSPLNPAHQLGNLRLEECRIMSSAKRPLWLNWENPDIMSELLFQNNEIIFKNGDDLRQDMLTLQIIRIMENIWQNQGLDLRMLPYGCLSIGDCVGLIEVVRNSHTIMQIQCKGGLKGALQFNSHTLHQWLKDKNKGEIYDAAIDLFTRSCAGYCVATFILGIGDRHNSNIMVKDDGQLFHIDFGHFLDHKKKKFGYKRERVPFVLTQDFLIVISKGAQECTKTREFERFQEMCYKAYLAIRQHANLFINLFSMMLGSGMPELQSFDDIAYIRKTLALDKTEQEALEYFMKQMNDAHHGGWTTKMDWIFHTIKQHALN
Assay Text: PI 3-Kinase (human) HTRF assay, PI3K α
Format: biochemical
Condition Set: read-out: PI3K α IC50

Sample records with IC50:
{"Compound": "Cc1nccn1C1CCN(c2cnc3ccc(-c4ccc5oc(N)nc5c4)cc3n2)CC1 [Compound 344]", "IC50": "< 100 nM"}
{"Compound": "CCN(CC)CCNc1cnc2ccc(-c3ccc4oc(N)nc4c3)cc2n1 [Compound 218]", "IC50": "< 1000 nM"}

Qu. Look up and report measured IC50 for this entry: O=C(c1cnc2ccc(-c3cnc(Cl)c(NS(=O)(=O)c4cccc(F)c4)c3)cn12)N1CCOCC1 [Compound 458]
Ans. < 100 nM

Qu. Look up and report measured IC50 for this entry: Nc1nc2cc(-c3ccc4ncc(C(=O)N5CC[C@H](O)C5)n4c3)ccc2o1 [Compound 264]
Ans. < 100 nM

Qu. Look up and report measured IC50 for this entry: Nc1nc2cc(-c3ccc4ncc(C(=O)N5CCn6cncc6C5)n4c3)ccc2o1 [Compound 493]
Ans. < 100 nM

Qu. Look up and report measured IC50 for this entry: Nc1nc2cc(-c3cn4c(C(=O)N5CCOCC5)cnc4cn3)ccc2o1 [Compound 122]
Ans. > 10000 nM

Qu. Look up and report measured IC50 for this entry: Nc1nc2cc(-c3ccc4ncc(N5CC(N6CCOCC6)C5)nc4c3)c(Cl)cc2o1 [Compound 371]
Ans. < 1000 nM

* * *

Consider the following compounds and their measured pIC50 readings.
Measured On: PI3K β (p110β/p85α) (Homo sapiens)
Construct: purchased Upstate / Millipore Corporation
Assay Text: PI 3-Kinase (human) HTRF assay, PI3K β
Format: biochemical
Condition Set: read-out: PI3K β IC50
pIC50: −log10 of the molar value.

Sample records with pIC50:
{"Smiles Code": "Nc1nc2cc(-c3ccn4ncc(C(=O)N5CCCC5)c4c3)ccc2o1", "pIC50": "> 5.00"}
{"Smiles Code": "Cc1nccn1C1CN(c2cnc3ccc(-c4ccc5oc(N)nc5c4)cc3n2)C1", "pIC50": "> 5.00"}
{"Smiles Code": "Nc1nc2cc(-c3ccc4ncn(C5CCCC5)c(=O)c4c3)ccc2o1", "pIC50": "< 5.00"}

Now examine the next entry.
Qu. Look up and report measured pIC50 for this entry: Nc1nc2cc(-c3ccn4ncc(C(=O)N5CCC(N6CCOCC6)CC5)c4c3)ccc2o1
Ans. > 5.00

* * *

Measured On: PI3K α (p110α/p85α) (Homo sapiens)
Construct: purchased Upstate / Millipore Corporation
Assay Text: PI 3-Kinase (human) HTRF assay, PI3K α
Type: biochemical
Condition Set: read-out: PI3K α IC50
Measurement Label: IC50

Sample records with IC50:
{"Smiles Code": "Nc1nc2cc(-c3cccc4[nH]nc(N)c34)ccc2o1", "IC50": "> 10 µM"}
{"Smiles Code": "Nc1nc2cc(-c3ccc4ncc(C(=O)N5CC6(C5)OCCO6)n4c3)ccc2o1", "IC50": "< 0.1 µM"}
{"Smiles Code": "CC(C)N1CCN(c2cnc3ccc(-c4ccc5oc(N)nc5c4)cc3n2)CC1", "IC50": "< 0.1 µM"}
{"Smiles Code": "CN1CCN(C2CN(c3cnc4ccc(-c5ccc6oc(N)nc6c5)cc4n3)C2)CC1", "IC50": "< 0.1 µM"}
{"Smiles Code": "Nc1nc2cc(-c3ccc4ncc(-c5ccnc(N6CCOCC6)c5)nc4c3)ccc2o1", "IC50": "< 1 µM"}
{"Smiles Code": "CC(C)N1CCC(Nc2ncnc3ccc(-c4ccc5oc(N)nc5c4)cc23)CC1", "IC50": "< 0.1 µM"}
{"Smiles Code": "Nc1nc2ccc(-c3ccc4nnc(-c5ccncc5)n4c3)cc2o1", "IC50": "< 10 µM"}

Now examine the next entry.
Qu. Look up and report measured IC50 for this entry: CS(=O)(=O)N1CCN(C2CN(c3cnc4ccc(-c5ccc6oc(N)nc6c5)cc4n3)C2)CC1
Ans. < 0.1 µM
